Provenance of the data: ChEMBL document CHEMBL2176980

# Assay protocol: Toxicity in hormone-independent human MDA-MB-231 cells assessed as growth inhibition incubated for 4 day s by crystal violet assay
# Format: cell-based

# Mol, Unit abbreviation, IC50 at 4 days
measured = [
    ("CCCn1c(-c2ccc(O)cc2F)cc(-c2ccc(O)cc2F)c1-c1ccc(O)cc1F", "µM", 21.9),
    ("CCCn1c(-c2ccc(O)cc2F)cc(-c2ccc(O)cc2)c1-c1ccc(O)cc1F", "µM", 20.9),
]

====

In this section we review reported half-life at 10 µM values for a set of compounds.
# Assay protocol: Chemical stability in pH 7.3 PBS buffer at 10 uM at 37 degC
# Assay type: physicochemical
Endpoint name: half-life at 10 µM (days)

# Mol, Endpoint name, Measured
rows = [
    ("CCCn1c(-c2ccc(O)cc2)cc(-c2ccc(O)cc2)c1-c1ccc(O)cc1F", "half-life at 10 µM", 31),
    ("CCCn1c(-c2ccc(O)cc2)cc(-c2ccc(O)cc2)c1-c1ccc(O)cc1", "half-life at 10 µM", 10.7),
    ("CCCn1c(-c2ccc(O)cc2Cl)cc(-c2ccc(O)cc2)c1-c1ccc(O)cc1", "half-life at 10 µM", 61.4),
    ("CCCc1c(-c2ccc(O)cc2)cn(-c2ccc(O)cc2)c1-c1ccc(O)cc1", "half-life at 10 µM", 7.04),
    ("CCCn1c(-c2ccc(O)cc2F)cc(-c2ccc(O)cc2F)c1-c1ccc(O)cc1F", "half-life at 10 µM", 44),
]

====

# Test target: UniProt:P03372
# Assay protocol: Activation of human ERalpha expressed in human U2-OS cells by luciferase reporter gene assay relative to untreated control
# Format: cell-based, U2OS
pEC50: −log10 of the molar value.
In this section we review reported pEC50 values for a set of molecules.
Endpoint name: pEC50

# Mol, Endpoint name, Measured
data = [
    ("CCCn1c(-c2ccc(O)cc2)cc(-c2ccc(O)cc2)c1-c1ccc(O)cc1", "pEC50", 9.40),
    ("CCCn1c(-c2ccc(O)cc2)cc(-c2ccc(O)cc2)c1-c1ccc(O)cc1Cl", "pEC50", 9.51),
    ("CCCn1c(-c2ccc(O)cc2Cl)cc(-c2ccc(O)cc2)c1-c1ccc(O)cc1", "pEC50", 7.33),
    ("CCCc1c(-c2ccc(O)cc2)cn(-c2ccc(O)cc2)c1-c1ccc(O)cc1", "pEC50", 8.80),
    ("CCCn1c(-c2ccc(O)cc2F)cc(-c2ccc(O)cc2F)c1-c1ccc(O)cc1F", "pEC50", 9.70),
    ("CCCn1c(-c2ccc(O)cc2F)cc(-c2ccc(O)cc2)c1-c1ccc(O)cc1", "pEC50", 9.17),
    ("Cn1c(-c2ccc(O)cc2F)cc(-c2ccc(O)cc2)c1-c1ccc(O)cc1F", "pEC50", 7.82),
    ("Cn1c(-c2ccc(O)cc2Cl)cc(-c2ccc(O)cc2)c1-c1ccc(O)cc1", "pEC50", 7.00),
    ("CCCn1c(-c2ccc(O)cc2F)cc(-c2ccc(O)cc2)c1-c1ccc(O)cc1F", "pEC50", 9.57),
    ("Cn1c(-c2ccc(O)cc2)cc(-c2ccc(O)cc2)c1-c1ccc(O)cc1F", "pEC50", 7.22),
    ("CCCn1c(-c2ccc(O)cc2)cc(-c2ccc(O)cc2F)c1-c1ccc(O)cc1", "pEC50", 9.08),
    ("CCCc1c(-c2ccc(O)cc2)nn(-c2ccc(O)cc2)c1-c1ccc(O)cc1", "pEC50", 10.00),
    ("Cn1c(-c2ccc(O)cc2F)cc(-c2ccc(O)cc2)c1-c1ccc(O)cc1", "pEC50", 7.62),
    ("CCCn1c(-c2ccc(O)cc2)cc(-c2ccc(O)cc2)c1-c1ccc(O)cc1F", "pEC50", 9.92),
    ("Cn1c(-c2ccc(O)cc2)cc(-c2ccc(O)cc2)c1-c1ccc(O)cc1Cl", "pEC50", 7.80),
]

====

In this section we review reported EC50 values for a set of compounds.
# Test target: Estrogen receptor (Homo sapiens, UniProt P03372)
# Sequence (P03372 whole entry): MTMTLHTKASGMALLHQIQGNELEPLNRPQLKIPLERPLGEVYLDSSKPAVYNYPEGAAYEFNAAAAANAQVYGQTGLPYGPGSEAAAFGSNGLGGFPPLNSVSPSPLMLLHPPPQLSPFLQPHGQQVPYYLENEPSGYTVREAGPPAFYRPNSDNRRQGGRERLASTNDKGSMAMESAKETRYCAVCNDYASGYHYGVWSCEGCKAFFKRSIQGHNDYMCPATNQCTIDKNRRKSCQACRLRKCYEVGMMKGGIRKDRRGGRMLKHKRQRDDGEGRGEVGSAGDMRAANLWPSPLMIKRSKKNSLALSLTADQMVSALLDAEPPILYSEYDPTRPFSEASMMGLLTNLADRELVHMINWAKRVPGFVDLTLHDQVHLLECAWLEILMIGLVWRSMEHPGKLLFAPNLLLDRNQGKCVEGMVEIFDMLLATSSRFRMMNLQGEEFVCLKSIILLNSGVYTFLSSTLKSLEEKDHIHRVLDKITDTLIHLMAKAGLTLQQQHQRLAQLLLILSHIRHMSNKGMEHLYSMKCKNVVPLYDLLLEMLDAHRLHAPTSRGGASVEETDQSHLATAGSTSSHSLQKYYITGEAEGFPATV
# Assay protocol: Activation of ERalpha in human MCF7/2a cells by luciferase reporter gene assay relative to untreated control
# Format: cell-based
Endpoint name: EC50 (nM)

# Mol, Unit abbreviation, Measured
rows = [
    ("CCCn1c(-c2ccc(O)cc2)cc(-c2ccc(O)cc2)c1-c1ccc(O)cc1F", "nM", 70),
    ("CCCc1c(-c2ccc(O)cc2)cn(-c2ccc(O)cc2)c1-c1ccc(O)cc1", "nM", 70),
    ("CCCn1c(-c2ccc(O)cc2F)cc(-c2ccc(O)cc2)c1-c1ccc(O)cc1", "nM", 240),
    ("CCCn1c(-c2ccc(O)cc2)cc(-c2ccc(O)cc2F)c1-c1ccc(O)cc1", "nM", 26),
    ("CCCn1c(-c2ccc(O)cc2F)cc(-c2ccc(O)cc2F)c1-c1ccc(O)cc1F", "nM", 23),
]

====

# Test target: UniProtKB P03372
# Sequence (P03372 whole entry): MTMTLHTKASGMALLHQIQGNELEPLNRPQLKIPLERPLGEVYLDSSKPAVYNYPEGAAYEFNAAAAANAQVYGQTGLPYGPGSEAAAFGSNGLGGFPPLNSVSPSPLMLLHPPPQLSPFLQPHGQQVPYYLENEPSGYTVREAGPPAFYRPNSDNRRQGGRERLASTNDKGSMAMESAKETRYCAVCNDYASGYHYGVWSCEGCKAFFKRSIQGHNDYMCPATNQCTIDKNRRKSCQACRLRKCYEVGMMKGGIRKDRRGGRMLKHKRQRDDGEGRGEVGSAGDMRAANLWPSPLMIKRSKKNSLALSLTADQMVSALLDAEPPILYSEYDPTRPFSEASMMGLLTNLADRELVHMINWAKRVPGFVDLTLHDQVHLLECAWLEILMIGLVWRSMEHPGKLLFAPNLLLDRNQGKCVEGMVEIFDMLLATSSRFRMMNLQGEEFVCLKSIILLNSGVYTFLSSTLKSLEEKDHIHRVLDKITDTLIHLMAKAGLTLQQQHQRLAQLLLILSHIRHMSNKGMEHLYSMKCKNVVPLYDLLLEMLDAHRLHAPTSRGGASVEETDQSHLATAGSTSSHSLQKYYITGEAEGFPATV
# Assay protocol: Activation of ERalpha in human MCF7/2a cells by luciferase reporter gene assay relative to untreated control
# Format: cell-based
pEC50: −log10 of the molar value.
In this section we review reported pEC50 values for a set of molecules.
Endpoint name: pEC50

# Molecule, Measured
measured = [
    ("CCCn1c(-c2ccc(O)cc2)cc(-c2ccc(O)cc2)c1-c1ccc(O)cc1", 7.30),
    ("Cn1c(-c2ccc(O)cc2)cc(-c2ccc(O)cc2)c1-c1ccc(O)cc1Cl", 6.22),
    ("CCCc1c(-c2ccc(O)cc2)nn(-c2ccc(O)cc2)c1-c1ccc(O)cc1 [PROPYLPYRAZOLETRIOL]", 8.52),
    ("CCCn1c(-c2ccc(O)cc2)cc(-c2ccc(O)cc2)c1-c1ccc(O)cc1Cl", 7.20),
    ("Cn1c(-c2ccc(O)cc2F)cc(-c2ccc(O)cc2)c1-c1ccc(O)cc1F", 6.54),
    ("CCCn1c(-c2ccc(O)cc2F)cc(-c2ccc(O)cc2)c1-c1ccc(O)cc1F", 7.52),
]

====

# Test system: MCF7
# Assay protocol: Down regulation of ERalpha human MCF7 cells at 10 uM by Western blotting
# Assay type: functional, cell-based
Activity calls are given as the source filed them. The rule behind the calls is not given here.
Classes used: YES for active, NO for inactive

# Mol, Group label
measured = [
    ("CCCn1c(-c2ccc(O)cc2)cc(-c2ccc(O)cc2)c1-c1ccc(O)cc1F", "YES"),
    ("Cn1c(-c2ccc(O)cc2)cc(-c2ccc(O)cc2)c1-c1ccc(O)cc1F", "NO"),
    ("Cn1c(-c2ccc(O)cc2F)cc(-c2ccc(O)cc2)c1-c1ccc(O)cc1", "NO"),
]
